These data points were gathered from a melting point compilation (Tetko et al.; mined from patent text by program, amines drawn as free bases though some values may be those of a salt).

Known melting point of a selection of molecules

CC1(C)CNC(=O)c2cc3nc(-c4ccncc4)[nH]c3cc21; 231 to 234 °C
Cc1[nH]c(-c2ccccc2)c(NC(C)C)c1C(=O)c1ccccc1; 132 to 136 °C
CCCCc1oc2ccccc2c1-c1ccc(-c2ccc(OCC(=O)O)cc2)cc1; 126 to 128 °C
O=c1ccc2ccc(OCCCCCc3ccccc3)cc2o1; 103 °C
CC1(C)C=C(CC(=O)O)C(C)(C)CC1; 50 to 54 °C

[in] May I ask what melting point has been recorded for `CC(C)(C(=O)O)c1cn2nc(CCCCN3CCN(C(c4ccccc4)c4ccccc4)CC3)ccc2n1` ?
[out] 108 to 110 °C

[in] Please do the same for COc1ccc(OC)c(-c2cc(OC)cc3c2OC(CN)C3)c1 (stereo unspecified) as well.
[out] 128 to 130 °C

[in] Next molecule: `Cc1c(-c2ccc(Cl)c(F)c2)sc2nc(N)[nH]c(=O)c12`
[out] 350 to 370 °C

[in] Input `COc1c(C#N)c(C#N)c(OC)c2ccccc12`
[out] 190 °C

[in] Can you handle CC(C)(C1CCCCC1)C(NC(=O)c1ccc(Cl)cc1)NC(=N[N+](=O)[O-])Nc1cccnc1 (stereo unspecified) next?
[out] 201 to 203 °C

[in] And `Cc1nn(-c2ccc(F)cc2)cc1C(=O)N(CC(=O)O)c1ccc(N2CCC(O)CC2)c(C#N)c1` ?
[out] 124 to 125 °C

---

# Lookup of reported melting point keyed by entry

# count of solved cases: 3
COc1ccc(Cc2nc3cccc(NCc4cccnc4)c3o2)cc1OC1CCCC1; 90 to 92 °C
Cc1nc(N2C(=O)CN(c3ccc(F)cc3)C2=O)sc1C(=O)NCc1ccccc1; 217 to 219 °C
Cn1c(=O)nc(-c2ccccc2Cl)c2cc(Cl)sc21; 164 to 166 °C

Kindly consider the entry below.
[in] Need melting point, item `COc1ccc2c3c(c(=O)oc2c1)CN(Cc1ccccc1)CC3`
[out] 118 to 120 °C

---

Overview of reported melting point across a group of compounds:

CCOc1ncc(C(C)=O)cc1C(=O)Nc1c(C(N)=O)nn(C2CN(C(=O)OC(C)(C)C)C2)c1CC; 220 to 223 °C
Cc1cc(C)c(Nc2nc(C)ncc2S(=O)(=O)c2ccc(-c3cncnc3)cc2)c(C)c1; 210 to 212 °C
O=C1CC(c2ccccc2)c2ccc(Cl)cc21 (stereo not given); 84 to 92 °C
CCCc1nc2c(N)nc3ccccc3c2n1CCCCNC(=O)c1ccccc1; 173 to 174 °C

Now for the compound whose melting point we want.
[in] Look at this compound and give its reported melting point. `COC(=O)c1ccc(Oc2cc(-n3nc(C)n(C(F)F)c3=O)c(F)cc2Cl)cc1`
[out] 97 to 98 °C

---

Catalogue of melting point readings, one per entry.

Observe how each entry below is paired with its result.
CC(C)(C)OC(=O)CN(C(=O)CN1C(=O)c2ccccc2C1=O)c1ccccc1F; 140 °C
O=C(O)COc1ccc(SCc2cccc(OCc3ccc(C(F)(F)F)cc3)c2)c2c1CCC2; 145 to 146 °C
CCCC1COC(Cn2nc[nH]c2=S)(c2ccc(Cl)cc2Cl)O1 (stereo not given); 128 °C
CN1C(=O)c2cncnc2Nc2ccccc21; 236 to 237 °C
CC1CCC2C(=O)N(NC(=O)CCc3cc(C(C)(C)C)c(O)c(C(C)(C)C)c3)C(=O)C2C1 (stereo not given); 87 to 92 °C
OCC(COCCCCCCCCOc1ccc(-c2ccccc2)cc1)OCc1ccccc1 (stereo not given); 48 to 50 °C

Continue with the molecule presented below.
[in] So what's the measured melting point for this one? CCn1cc(C2(c3cccc(-c4cccnc4F)c3)N=C(N)N(C)C2=O)cc1CO (stereo not given)
[out] 170 to 172 °C

---

MEASUREMENT_LABEL: melting point

CCCNC(=O)C1(CCC)c2ccccc2Sc2ccccc21; 132 to 133 °C
COC(=O)C(c1ccccc1Cl)C1CNc2sc(OC(=O)c3ccc([N+](=O)[O-])cc3)cc2C1 (stereo not given); 100 to 102 °C

[in] State the recorded melting point for this entry: `O=c1oc2c(c(O)c1Sc1ccc(Cl)cc1)c(=O)n(Cc1ccccc1)c1ccccc21`
[out] 273 to 275 °C

[in] Next entry: `COc1cc(Br)c(O)c([N+](=O)[O-])c1`
[out] 116 to 118 °C

---

melting point for assorted compounds

Study these solved cases before continuing.
N#Cc1cccc(C2=Nc3cc(O)c(-c4ccccc4F)cc3NC(=O)C2)c1; > 250 °C
CC(C)c1ccc(OCC(=O)N2C(=O)OC[C@H]2Cc2ccccc2)cc1; 104 to 105 °C
Cc1ncc2n1C(=O)N(C1CCN(C(=O)CCS(=O)(=O)c3ccc4cc(Cl)ccc4c3)CC1)C2; 195 °C
O=C(CCCCl)c1cc2c(s1)C(=O)NCCC2; 163 to 165 °C
NC(=O)c1cc2cc(N3CCN(Cc4ccccc4)CC3)ccc2o1; 206 to 208 °C

[in] melting point lookup needed for `Fc1ccc(-c2ncn(CCCN3CCOCC3)c2-c2ccnc(Cl)c2)cc1` , thanks.
[out] 97 to 97.5 °C

[in] Another compound to check: `CCCCCCCCCCNC(=O)c1cccc(N)c1`
[out] 56 to 58 °C

[in] Check `NS(=O)(=O)Cc1ccc2oc([N+](=O)[O-])c(-c3ccccc3)c2c1` too.
[out] 203 to 205 °C

[in] Try the compound `O=c1[nH]c(N[N+](=O)[O-])ncc1Cc1ccncc1`
[out] 228 to 229 °C

[in] Moving on to `CC1(C)OCc2cc(Cc3c[nH]cn3)ccc2O1`
[out] 150 to 170 °C

---

MEASUREMENT_LABEL: melting point

# count of solved cases: 10
Cn1c2ccccc2c2c3c(c4c5cc(O)ccc5n(CCC#N)c4c21)C(=O)NC3=O; 303 to 306 °C
CCc1ccc2c3c(ccc2n1)OCC(CN1CC=C(c2c[nH]c4ccccc24)CC1)O3 (configuration not stated); 190 °C
O=C1c2cc(Cl)ccc2CC1Br (configuration not stated); 84 to 87 °C
ON=Cc1ccc(-c2ccc(O)cc2)c2sccc12; 230 to 231 °C
c1ccc(CCc2cc3cccnc3[nH]2)cc1; 157 to 158 °C
CCc1cc(-c2ccc(NC(=O)N3CCc4cc(SC)c(C(F)(F)F)cc43)cc2)ccn1; 158 to 161 °C
O=C(OCc1ccccc1)N1CCc2c(sc3nc(CN4C(=O)CCC4=O)c(Cl)c(-c4ccc(OCc5ccccc5)cc4)c23)C1; 238 to 239 °C
CS(=O)(=O)c1ccc(C2=C(c3ccccc3)C(=O)C3(CCCC3)O2)cc1; 184 to 185 °C
Clc1ccc2c(c1)N=C(N1CCCN(C3CC3)CC1)c1ccccc1N2; 141 to 143 °C
O=C(N[C@H](Cc1ccc(F)cc1)[C@@H](O)c1ccc(F)cc1)c1cccc2ccccc12 (racemic); 199 to 200 °C

[in] Endpoint output: melting point of CCOC(=O)CC(c1ccccc1)c1ccc(N2CCN(CCC3CCN(C(=O)OC(C)(C)C)CC3)C2=O)cc1 (configuration not stated) . Value?
[out] 100 to 102 °C

[in] Proceed to CCS(=O)c1c(C#N)nn(-c2c(Cl)cc(C(F)(F)F)cc2Cl)c1NCCSC (configuration not stated)
[out] 111 to 113 °C

[in] Please give the result for `COc1cccc(COc2ncc(F)c(NN)n2)c1` too.
[out] 103 to 106 °C

[in] Entry to check: Cc1c(C(=O)C(C)Br)ccn1S(=O)(=O)c1ccccc1 (configuration not stated)
[out] 99 to 103 °C

[in] Next entry: `Cc1[nH]c(=O)n(-c2cc(C(=O)OC(C)C)c(Cl)cc2F)c(=O)c1C`
[out] 155 to 157 °C

[in] Another compound to look at: CC12CCC3C(CC4OC45CC=CCC35C)C1CC=C2Br (configuration not stated)
[out] 146 to 147 °C

[in] Another: O=C(O)C1=Cc2cc3occ(-c4ccc(Br)cc4)c3cc2OC1C(F)(F)F (configuration not stated)
[out] > 250 °C

[in] Again, but for `O=C(O)[C@H](CC(=NO)c1ccc2oc3ccccc3c2c1)NC(=O)C(F)(F)F`
[out] 128 to 130 °C

[in] Now the same for `CCCCn1c(=O)[nH]c(=O)c2c1ncn2CC(C)=O`
[out] 218 °C

[in] Can you handle CN1C(=O)C=C(c2ccccc2)C1(C)O (configuration not stated) next?
[out] 148 to 152 °C

[in] Can you check `COc1ccc(C(=O)N(C(=O)c2ccc(OC)cc2)c2nc3ccc(N(C)C)cc3c(NCc3cccs3)c2C#N)cc1` next?
[out] 171 °C

[in] Next: `O=Cc1nn(-c2ccccc2)c2c1CCCC2`
[out] 60 °C

[in] Same again, this time with `BrCc1nc(-c2ccccc2)nc2ccccc12`
[out] 110 °C

[in] Next: NC(CCO)C(=O)Nc1ccc(Cl)cc1Cl (configuration not stated)
[out] 89 to 91 °C

[in] Lookup CC(C)N1C(=O)C(N=[N+]=[N-])N=C(c2ccccc2)c2ccccc21 (configuration not stated)
[out] 178 to 179 °C
